Reported EC50 values are given for each entry in this list.
biological target: XIAP-BIR3 (Homo sapiens, UniProt P98170); assay: Biacore SPR solution competition binding assay vs smac7 mer peptide, XIAP-BIR3; details: citrate salt form tested; 100 nM XIAP-BIR3; 25° C.; read-out: XIAP-BIR3 Binding Biacore (Competitive) EC50
Sequence (P98170 241-356 limits assumed): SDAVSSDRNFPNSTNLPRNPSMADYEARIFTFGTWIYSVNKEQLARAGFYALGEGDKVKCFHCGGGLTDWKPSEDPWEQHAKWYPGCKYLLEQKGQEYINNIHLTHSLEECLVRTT

Here's what some known entries look like.
{"columns": ["sample_smiles", "reported_measurement"],
 "data": [
  ["CN[C@@H](C)C(=O)N[C@@H](CCCCNS(=O)(=O)c1ccc2ccc(S(=O)(=O)NCCCC[C@H](NC(=O)[C@H](C)NC)C(=O)N3CCC[C@H]3c3cncc(C(=O)c4ccc(F)cc4)c3)cc2c1)C(=O)N1CCC[C@H]1c1cncc(C(=O)c2ccc(F)cc2)c1", "46.3 to 53.5 nM"],
  ["O=C(NCCCC[C@H](NC(=O)[C@@H]1CCN1)C(=O)N1CCC[C@H]1c1cncc(C(=O)c2ccc(F)cc2)c1)c1ccc(-c2ccc(C(=O)NCCCC[C@H](NC(=O)[C@@H]3CCN3)C(=O)N3CCC[C@H]3c3cncc(C(=O)c4ccc(F)cc4)c3)cc2)cc1", "636 to 704 nM"],
  ["CN[C@@H](C)C(=O)N[C@@H](CCCCNC(=O)CCCCCCCC(=O)NCCCC[C@H](NC(=O)[C@H](C)NC)C(=O)N1CCC[C@H]1c1cncc(C(=O)c2ccc(F)cc2)c1)C(=O)N1CCC[C@H]1c1cncc(C(=O)c2ccc(F)cc2)c1", "129 to 145 nM"]
]}

Moving on to another compound below.
Short answer for "CN[C@@H](C)C(=O)N[C@@H](CCCCNC(=O)c1ccc(-c2ccc(C(=O)NCCCC[C@H](NC(=O)[C@H](C)NC)C(=O)N3CCC[C@H]3c3cncc(C(=O)c4ccc(F)cc4)c3)cc2)cc1)C(=O)N1CCC[C@H]1c1cncc(C(=O)c2ccc(F)cc2)c1" : EC50 was 60.4 to 162 nM

These data points were gathered from patent US8445440B2.
